FYI, the data here is from BigSolDB 2.1.

conditions: in n-pentyl acetate, 313.15 K
Assay metric: solubility (mole fraction)
Number, no unit, nothing else.

Requested read-out: solubility (mole fraction). Entry: `O=C1OC(=O)[C@H]2[C@@H]1[C@@H]1C=C[C@H]2O1`
0.0205

----------
conditions: in n-butyl acetate, 298.15 K
Assay metric: solubility (mole fraction)
// return just the number, without any unit appended

Look at this molecule and give its reported solubility (mole fraction). `O=C1OC(=O)[C@H]2[C@@H]1[C@@H]1C=C[C@H]2O1`
0.0172

----------
conditions: in acetonitrile, 278.15 K
Assay metric: solubility (mole fraction)

Form field: reported solubility (mole fraction) of `O=C1OC(=O)[C@H]2[C@@H]1[C@@H]1C=C[C@H]2O1`
0.0308

----------
details: in methyl acetate, 283.15 K
Assay metric: solubility (mole fraction)
Would you mind answering with just the numeric figure?

For `O=C1OC(=O)[C@H]2[C@@H]1[C@@H]1C=C[C@H]2O1` , what is its reported solubility (mole fraction)?
0.0281

----------
details: in NMP, 323.15 K
Assay metric: solubility (mole fraction)
Answer with a number only.

Reported solubility (mole fraction), compound `O=C1OC(=O)[C@H]2[C@@H]1[C@@H]1C=C[C@H]2O1` : ____
0.277

----------
conditions: in isopropyl acetate, 283.15 K
Assay metric: solubility (mole fraction)

Please give the measured solubility (mole fraction) for this compound: `O=C1OC(=O)[C@H]2[C@@H]1[C@@H]1C=C[C@H]2O1`
0.0126

----------
conditions: in DMF, 318.15 K
Assay metric: solubility (mole fraction)
Write no unit; give the number alone.

Reported solubility (mole fraction), compound `O=C1OC(=O)[C@H]2[C@@H]1[C@@H]1C=C[C@H]2O1` : ____
0.218

----------
conditions: in NMP, 278.15 K
Assay metric: solubility (mole fraction)
Lab note: record the figure alone, no unit after it.

Recorded solubility (mole fraction) of `O=C1OC(=O)[C@H]2[C@@H]1[C@@H]1C=C[C@H]2O1` , please.
0.133

----------
details: in isopentyl acetate, 313.15 K
Assay metric: solubility (mole fraction)
Could you respond with only the numeric value?

Would you kindly share the measured solubility (mole fraction) for `O=C1OC(=O)[C@H]2[C@@H]1[C@@H]1C=C[C@H]2O1` ?
0.0196

----------
settings: in acetonitrile, 288.15 K
Assay metric: solubility (mole fraction)

I am curious: what solubility (mole fraction) value has been reported for `O=C1OC(=O)[C@H]2[C@@H]1[C@@H]1C=C[C@H]2O1` ?
0.0393

----------
conditions: in n-butyl acetate, 278.15 K
Assay metric: solubility (mole fraction)
I'd appreciate a reply containing only the number, no unit.

Would you kindly share the measured solubility (mole fraction) for `O=C1OC(=O)[C@H]2[C@@H]1[C@@H]1C=C[C@H]2O1` ?
0.00989

----------
settings: in n-butyl acetate, 283.15 K
Assay metric: solubility (mole fraction)
Answer using only a numeral; do not append any unit.

Returns the measured solubility (mole fraction) for the input compound. Input: `O=C1OC(=O)[C@H]2[C@@H]1[C@@H]1C=C[C@H]2O1`
0.0115

----------
conditions: in DMF, 303.15 K
Assay metric: solubility (mole fraction)
Lab note: write the figure by itself, no unit.

Endpoint output: solubility (mole fraction) of `O=C1OC(=O)[C@H]2[C@@H]1[C@@H]1C=C[C@H]2O1` . Value?
0.164

----------
details: in isopropyl acetate, 298.15 K
Assay metric: solubility (mole fraction)
Could you keep your reply to the number by itself?

So what does the record say about solubility (mole fraction) for `O=C1OC(=O)[C@H]2[C@@H]1[C@@H]1C=C[C@H]2O1` ?
0.0191
